Molecular target: His-tagged KRAS G12D protein (Homo sapiens (Human), UniProt P01116, G12D)
Sequence (P01116 other isoform, or with tags, fused parts or gaps G12D): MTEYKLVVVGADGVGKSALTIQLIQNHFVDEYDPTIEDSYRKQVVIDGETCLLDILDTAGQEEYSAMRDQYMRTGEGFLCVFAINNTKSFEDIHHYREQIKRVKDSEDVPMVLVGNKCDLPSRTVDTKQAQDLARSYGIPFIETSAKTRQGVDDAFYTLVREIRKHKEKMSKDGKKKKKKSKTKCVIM
Assay: KRAS G12D TR-FRET Assay
Assay type: binding
Conditions: read-out: KRAS G12D Binding IC50
Measure Name: IC50
Answer format: number, then unit.

Cc1c2ncc3c(nc(OCC4CN(C)CCO4)nc13)N1CCC[C@](C)(C1)NC(=O)CCCc1c(F)ccc3cc(O)cc-2c13 (mixture of isomers) ... 20 nM
Cc1c2ncc3c(nc(OCC(C)(C)O)nc13)N1CCC[C@](C)(C1)NC(=O)CCCc1c(F)ccc3cc(O)cc-2c13 ... 124 nM
O=C1OCCCc2c(Cl)cc3[nH]ncc3c2-c2ncc3c(nc(O[C@@H]4CCOC4)nc3c2F)N2CCOC[C@H](C2)O1 ... 90 nM

Alright, here's another compound for you.
Value of IC50 reported for the compound Fc1c2ncc3c(nc(OC[C@@]45CCCN4C[C@H](F)C5)nc13)N1CCO[C@]3(C1)C[C@@H](C3)OCCCCc1c(Cl)cc3[nH]ncc3c1-2 (single isomer, unassigned) is 6 nM

* * *

Measured IC50 by item
Molecular target: His-tagged KRAS G12D protein (Homo sapiens (Human), UniProt P01116, G12D)
Assay: KRAS G12D TR-FRET Assay
Assay type: binding
Settings: read-out: KRAS G12D Binding IC50
Field format: number, assumed nM, no unit text.

O=C1N[C@H]2CC[C@@H](O)CN(C2)c2nc(OC[C@@]34CCCN3C[C@H](F)C4)nc3c(F)c(ncc23)-c2c(c(Cl)cc3[nH]ncc23)CCCO1 (racemic) ... 3270
Cc1cc2[nH]ncc2c2c1C[C@@H](C)COC(=O)O[C@@H]1CCCN(C1)c1nc(OC[C@@]34CCCN3C[C@H](F)C4)nc3c(F)c-2ncc13 (single isomer, unassigned) ... 22
Fc1c2ncc3c(nc(OC[C@@]45CCCN4C[C@H](F)C5)nc13)N1CC(COCCCCc3c(Cl)cc4[nH]ncc4c3-2)CC(F)(F)C1 (some centres unmarked) ... 27

Value of IC50 reported for the compound `O=C1N[C@@H]2CN(C[C@@H]3C[C@@H]32)c2nc(OC[C@@]34CCCN3C[C@H](F)C4)nc3c(F)c(ncc23)-c2c(c(Cl)cc3[nH]ncc23)CCC[C@H]1F` is 1770

Value of IC50 reported for the compound `Cc1cc2[nH]ncc2c2c1CCCCO[C@@H](C)[C@H]1CN(CCO1)c1nc(OC[C@@]34CCCN3C[C@H](F)C4)nc3c(F)c-2ncc13` is 1140

Value of IC50 reported for the compound `Cc1cc2[nH]ncc2c2c1CCCOC(=O)O[C@@]1(C)COCCN(C1)c1nc(OC[C@@H]3CCCN3C)nc3c(F)c-2ncc13` is 7570

Value of IC50 reported for the compound `O=C1OCCCc2c(Cl)cc3[nH]ncc3c2-c2ncc3c(nc(OC[C@@]45CCCN4C[C@H](F)C5)nc3c2F)N2CCOCC3(CC(C3)O1)C2` is 19

Value of IC50 reported for the compound `O=C1CCCCc2c(Cl)cccc2-c2ncc3c(nc(OC[C@@]45CCCN4C[C@H](F)C5)nc3c2F)N2CCC[C@H](C2)N1` is 651

* * *

Target: GDP-bound KRAS protein (aa 1-169), containing both G12D and C118A amino acid substitutions (Homo sapiens (Human), UniProt P01116, C118A/G12D)
Sequence (P01116 other isoform, or with tags, fused parts or gaps G12D/C118A): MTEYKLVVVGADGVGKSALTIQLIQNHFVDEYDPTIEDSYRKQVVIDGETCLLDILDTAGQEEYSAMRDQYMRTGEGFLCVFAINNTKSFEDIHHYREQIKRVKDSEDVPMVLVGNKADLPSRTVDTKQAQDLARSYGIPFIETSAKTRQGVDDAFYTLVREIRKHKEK
Experiment: KRAS G12D Coupled Nucleotide Exchange Assay
Format: biochemical
Conditions: read-out: KRAS G12D Coupled Exchange IC50
Measured IC50 by item
Field format: number, assumed nM, no unit text.

Answered cases to consult:
Cc1cc2[nH]ncc2c2c1CCCCC(=O)N[C@H]1CN(C[C@H]3C[C@H]31)c1nc(OC[C@@]34CCCN3C[C@H](F)C4)nc3c(F)c-2ncc13 ... 4
CN1C[C@H](F)C[C@H]1COc1nc2c3cnc(c(F)c3n1)-c1c(c(Cl)cc3[nH]ncc13)CCOC(=O)O[C@H]1C[C@@]3(CCCN2C3)C1 ... 3
O=C1CCCCc2c(Cl)cccc2-c2ncc3c(nc(OC[C@@]45CCCN4C[C@H](F)C5)nc3c2F)N2CC[C@@H]3CCN1[C@@H]3C2 ... 1570
O=C1CCCCc2c(C(F)(F)F)cc3[nH]ncc3c2-c2ncc3c(nc(OC[C@@]45CCCN4C[C@H](F)C5)nc3c2F)N2CCC[C@H](C2)O1 ... 23
O=C1OCCc2c(Cl)cc3[nH]ncc3c2-c2ncc3c(nc(OC[C@@]45CCCN4C[C@H](F)C5)nc3c2F)N2CCO[C@@H](CO1)C2 ... 2
Fc1c2ncc3c(nc(OC[C@@]45CCCN4C[C@H](F)C5)nc13)N1CCCC[C@H](C1)c1cnn(n1)CCCc1c(Cl)cc3[nH]ncc3c1-2 ... 4

Value of IC50 reported for the compound `CN1CCC(Oc2nc3c4cnc(c(F)c4n2)-c2c(c(Cl)cc4[nH]ncc24)CCCOC(=O)O[C@@H]2COCCN3C2)CC1.O=C(O)C(F)(F)F` is 18

Value of IC50 reported for the compound `Cc1cc2[nH]ncc2c2c1CCC[C@H](O)CC[C@H]1CCCN(C1)c1nc(OC[C@@]34CCCN3C[C@H](F)C4)nc3c(F)c-2ncc13` is 24

Value of IC50 reported for the compound CN(C)CC1(COc2nc3c4cnc(c(F)c4n2)-c2cc(O)cc4ccc(F)c(c24)CCCC(=O)N[C@]2(C)CCCN3C2)CC1 [Example 22, bis(2,2,2-trifluoroacetate)] is 1

Value of IC50 reported for the compound `CN1CCC[C@H]1COc1nc2c3cnc(c(F)c3n1)-c1c(c(Cl)cc3[nH]ncc13)CCCOC(=O)O[C@@H]1COCCN2C1` is 2

Value of IC50 reported for the compound `Cc1cc2[nH]ncc2c2c1CCCCC(=O)O[C@@H]1COCCN(C1)c1nc(OC[C@@]34CCCN3C[C@H](F)C4)nc3c(F)c-2ncc13` is 3
